// data source = paper doi:10.1101/2021.10.07.463234v2

# Subject of test: SARS-CoV-2 Mac1 (Severe acute respiratory syndrome coronavirus 2, UniProt P0DTD1)
# Assay name: biochemical
# Assay setup: read-out: %inhibition
Structures can show the parent of a compound that is named as a salt.
So I've got a bunch of molecules here, and I need their inhibition at 100 µM values.
Numbers only here, please. The scale is %.

Exercise: What value of inhibition at 100 µM has been reported for the following molecule? CCCN(CCC)C(=O)C1=Cc2ccc(-c3ccc(C(=O)N4CCCC4)cc3)cc2N=C(N)C1
Key: 0

Exercise: What value of inhibition at 100 µM has been reported for the following molecule? O=C(O)c1nn(Cc2ccc(Cl)cc2Cl)c2ccccc12
Key: 7.38

Exercise: What value of inhibition at 100 µM has been reported for the following molecule? COc1ccc2cc1Oc1ccc(cc1)C[C@H]1c3c(cc4c(c3Oc3cc5c(cc3OC)CCN(C)[C@@H]5C2)OCO4)CCN1C
Key: 18.2

Exercise: What value of inhibition at 100 µM has been reported for the following molecule? CCN(CC)CCOC(=O)c1ccc(N)cc1
Key: 0

Exercise: What value of inhibition at 100 µM has been reported for the following molecule? CC(=O)[C@@]1(O)CC[C@H]2[C@@H]3CCC4=CC(=O)CCC4=C3[C@@H](c3ccc(N(C)C)cc3)C[C@@]21C
Key: 0.321

Exercise: What value of inhibition at 100 µM has been reported for the following molecule? CN(C)CCC(c1ccc(Cl)cc1)c1ccccn1 (centres unmarked) [Chlorpheniramine Maleate]
Key: 6.37

Exercise: What value of inhibition at 100 µM has been reported for the following molecule? Cc1c(N)nc([C@H](CC(N)=O)NC[C@H](N)C(N)=O)nc1C(=O)N[C@H](C(=O)N[C@H](C)[C@@H](O)[C@H](C)C(=O)N[C@H](C(=O)NCCc1nc(-c2nc(C(=O)NCCC[S+](C)C)cs2)cs1)[C@@H](C)O)[C@@H](O[C@@H]1O[C@@H](CO)[C@@H](O)[C@H](O)[C@@H]1O[C@H]1O[C@H](CO)[C@@H](O)[C@H](OC(N)=O)[C@@H]1O)c1cnc[nH]1 [Bleomycin sulfate]
Key: 0

Exercise: What value of inhibition at 100 µM has been reported for the following molecule? CC(C)[N+](C)(CCOC(=O)C1c2ccccc2Oc2ccccc21)C(C)C [Propantheline bromide]
Key: 0

Exercise: What value of inhibition at 100 µM has been reported for the following molecule? CCn1cc(C(=O)O)c(=O)c2cnc(N3CCNCC3)nc21
Key: 0

Exercise: What value of inhibition at 100 µM has been reported for the following molecule? O=C(O)COCCN1CCN([C@H](c2ccccc2)c2ccc(Cl)cc2)CC1 [Levocetirizine Dihydrochloride]
Key: 7.84

Exercise: What value of inhibition at 100 µM has been reported for the following molecule? C[N+](C)(C)CCCCCC[N+](C)(C)C [Hexamethonium?Dibromide]
Key: 0

Exercise: What value of inhibition at 100 µM has been reported for the following molecule? O=C(O)CCCC[C@@H]1SC[C@@H]2NC(=O)N[C@@H]21
Key: 0

Exercise: What value of inhibition at 100 µM has been reported for the following molecule? N#C[C@@H]1CCCN1C(=O)CNC12CC3CC(CC(O)(C3)C1)C2
Key: 11.7

Exercise: What value of inhibition at 100 µM has been reported for the following molecule? CCOC(=O)[C@H](CCc1ccccc1)N[C@H]1CCc2ccccc2N(CC(=O)O)C1=O [Benazepril HCl]
Key: 0

Exercise: What value of inhibition at 100 µM has been reported for the following molecule? CN(C)Cc1ccc(S(=O)(=O)n2ccc(/C=C/C(=O)NO)c2)cc1
Key: 18.5

Exercise: What value of inhibition at 100 µM has been reported for the following molecule? CCC(C)(Oc1ccc(C2(c3ccc(OC(C)(CC)C(=O)O)cc3)CCCCC2)cc1)C(=O)O (centres unmarked) [Clinofibrate]
Key: 0

Exercise: What value of inhibition at 100 µM has been reported for the following molecule? O=[N+]([O-])C(Br)(CO)CO
Key: 0

Exercise: What value of inhibition at 100 µM has been reported for the following molecule? Nc1ccn(C[C@@H](CO)OCP(=O)(O)O)c(=O)n1
Key: 0

Exercise: What value of inhibition at 100 µM has been reported for the following molecule? CO[C@H]1O[C@@H]2O[C@@]3(C)CC[C@H]4[C@H](C)CC[C@@H]([C@H]1C)[C@@]24OO3
Key: 0

Exercise: What value of inhibition at 100 µM has been reported for the following molecule? CC(C)(C)NCC(O)c1cc(O)cc(O)c1 (centres unmarked) [Terbutaline Sulfate]
Key: 0

Exercise: What value of inhibition at 100 µM has been reported for the following molecule? CC1(C)S[C@@H]2[C@H](NC(=O)[C@H](C(=O)O)c3ccsc3)C(=O)N2[C@H]1C(=O)O [Ticarcillin sodium]
Key: 7.19

Exercise: What value of inhibition at 100 µM has been reported for the following molecule? CN(C)CCc1c[nH]c2ccc(CS(=O)(=O)N3CCCC3)cc12 [Almotriptan Malate]
Key: 9.31

Exercise: What value of inhibition at 100 µM has been reported for the following molecule? CCCCOc1cc(C(=O)OCCN(CC)CC)ccc1N [Oxybuprocaine HCl]
Key: 8.43

Exercise: What value of inhibition at 100 µM has been reported for the following molecule? CO/N=C(\C(=O)N[C@@H]1C(=O)N2C(C(=O)O)=C(COC(N)=O)CS[C@H]12)c1ccco1 [Cefuroxime sodium]
Key: 0

Exercise: What value of inhibition at 100 µM has been reported for the following molecule? CC(/C=C1\SC(=S)N(CC(=O)O)C1=O)=C\c1ccccc1
Key: 0

Exercise: What value of inhibition at 100 µM has been reported for the following molecule? O=C1/C(=C2\Nc3ccccc3C2=O)Nc2ccccc21
Key: 9.76

Exercise: What value of inhibition at 100 µM has been reported for the following molecule? NCC[C@H](O)C(=O)N[C@@H]1C[C@H](N)[C@@H](O[C@H]2O[C@H](CN)[C@@H](O)[C@H](O)[C@H]2O)[C@H](O)[C@H]1O[C@H]1O[C@H](CO)[C@@H](O)[C@H](N)[C@H]1O [Amikacin disulfate]
Key: 0

Exercise: What value of inhibition at 100 µM has been reported for the following molecule? CC(S)C(=O)NCC(=O)O (centres unmarked)
Key: 0

Exercise: What value of inhibition at 100 µM has been reported for the following molecule? CN1CCN(C2=Nc3ccccc3Oc3ccc(Cl)cc32)CC1 [Loxapine Succinate]
Key: 30.4

Exercise: What value of inhibition at 100 µM has been reported for the following molecule? Cn1c(=O)c2[nH]cnc2n(C)c1=O
Key: 5.61

Exercise: What value of inhibition at 100 µM has been reported for the following molecule? Nc1ccc(S(=O)(=O)Nc2cncc(Cl)n2)cc1 [Sulfalozine sodium]
Key: 0

Exercise: What value of inhibition at 100 µM has been reported for the following molecule? CCC1(C)CC(=O)NC1=O (centres unmarked) [Ethosuximide]
Key: 0

---

So I've got a bunch of molecules here, and I need their inhibition at 100 µM values.
# Subject of test: UniProt P0DTD1
# Assay name: biochemical
# Assay setup: read-out: %inhibition
Counter-ions that a name gives are not always drawn.
Numbers only here, please. The scale is %.

Exercise: What value of inhibition at 100 µM has been reported for the following molecule? CC(=O)O[C@H]1C[C@@H]2CC[C@@H]3[C@H](CC[C@@]4(C)[C@H]3C[C@H]([N+]3(C)CCCCC3)[C@@H]4OC(C)=O)[C@@]2(C)C[C@@H]1N1CCCCC1 [Vecuronium Bromide]
Key: 0

Exercise: What value of inhibition at 100 µM has been reported for the following molecule? S=C(NCc1ccc2c(c1)OCO2)N1CCN(c2ncnc3c2oc2ccccc23)CC1 [Amuvatinib (MP-470)]
Key: 24.8

Exercise: What value of inhibition at 100 µM has been reported for the following molecule? CNS(=O)(=O)CCc1ccc2[nH]cc(C3CCN(C)CC3)c2c1 [Naratriptan HCl]
Key: 0

Exercise: What value of inhibition at 100 µM has been reported for the following molecule? Cc1ccsc1C(=CCCN1CCC[C@@H](C(=O)O)C1)c1sccc1C [Tiagabine]
Key: 9.64

Exercise: What value of inhibition at 100 µM has been reported for the following molecule? Cc1cc(=O)n(-c2ccccc2)n1C [Antipyrine]
Key: 8.75

Exercise: What value of inhibition at 100 µM has been reported for the following molecule? COc1cc(O)c(C(=O)c2ccccc2)cc1S(=O)(=O)O [Sulisobenzone]
Key: 4.13

Exercise: What value of inhibition at 100 µM has been reported for the following molecule? CCCNCC(O)COc1ccccc1C(=O)CCc1ccccc1 (centres unmarked) [Propafenone HCl]
Key: 0

Exercise: What value of inhibition at 100 µM has been reported for the following molecule? Nc1nc(=O)c2c([nH]1)NCC(CNc1ccc(C(=O)N[C@@H](CCC(=O)O)C(=O)O)cc1)N2C=O (some centres unmarked) [Calcium folinate]
Key: 0
